biological target: Relaxin-3 receptor 2 (Homo sapiens, UniProt Q8TDU9); assay: Displacement of europium-labeled Eu(A)-mINSL5 from human RXFP4 expressed in CHO-K1 cells; type: cell-based
Sequence (Q8TDU9 whole entry): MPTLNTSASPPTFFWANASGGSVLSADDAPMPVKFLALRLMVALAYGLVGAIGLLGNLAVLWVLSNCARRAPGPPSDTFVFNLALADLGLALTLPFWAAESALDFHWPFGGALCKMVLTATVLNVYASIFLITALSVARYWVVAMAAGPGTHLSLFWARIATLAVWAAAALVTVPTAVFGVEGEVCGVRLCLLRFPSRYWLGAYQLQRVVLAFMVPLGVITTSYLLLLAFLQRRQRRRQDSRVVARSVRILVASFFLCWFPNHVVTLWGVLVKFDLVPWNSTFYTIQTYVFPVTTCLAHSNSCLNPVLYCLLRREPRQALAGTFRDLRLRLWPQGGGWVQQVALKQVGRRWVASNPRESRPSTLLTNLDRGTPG
pKi: −log10 of the molar value. Bridges are numbered along the chain shown (N, C = ends). Roman numbers before positions name the chains, in order.
READOUT KIND: pKi

[
  {
    "SUBSTANCE": "I: H-KESVRLCGLEYIRTVIYICASSRW-OH / II: H-RDLQALCCREGCSMKELSTLC-OH (disulfide I:7-II:8, I:19-II:21, II:7-II:12)",
    "ENDPOINT VALUE": 8.26
  }
]
